Please provide measured total protein half-life in vivo for the entries that follow.
assay: total protein half-life in vivo (active degradation + dilution); higher = more stable protein; details: E. coli NCM3722 delta-clpP delta-lon delta-hslV; growth: N-lim chemostat; doubling time 6 h
One number for each entry, in h.

Here are 2 sequences together with their reported answers.
input-sequence | total protein half-life in vivo [h]
MKRVLFFLLMIFVSFGVIADCEIQAKDHDCFTIFAKGTIFSAFPVLNNKAMWRWYQNEDIGEYYWQTELGTCKNNKFTPSGARLLIRVGSLRLNENHAIKGTLQELINTAEKTAFLGDRFRSYIRAGIYQKKSSDPVQLLAVLDNSIMVKYFKDEKPTYARMTAHLPNKNESYECLIKIQHELIRSEEK | 1.81
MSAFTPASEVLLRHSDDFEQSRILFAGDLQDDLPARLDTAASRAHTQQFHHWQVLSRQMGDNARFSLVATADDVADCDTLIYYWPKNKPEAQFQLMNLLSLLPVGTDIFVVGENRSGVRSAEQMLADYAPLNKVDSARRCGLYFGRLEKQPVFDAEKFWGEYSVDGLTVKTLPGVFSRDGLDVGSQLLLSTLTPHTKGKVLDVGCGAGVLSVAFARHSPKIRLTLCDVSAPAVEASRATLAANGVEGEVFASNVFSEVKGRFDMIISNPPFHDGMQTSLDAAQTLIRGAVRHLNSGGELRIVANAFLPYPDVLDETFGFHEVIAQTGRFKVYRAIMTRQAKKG | 6.65

Ask: Please indicate total protein half-life in vivo recorded for "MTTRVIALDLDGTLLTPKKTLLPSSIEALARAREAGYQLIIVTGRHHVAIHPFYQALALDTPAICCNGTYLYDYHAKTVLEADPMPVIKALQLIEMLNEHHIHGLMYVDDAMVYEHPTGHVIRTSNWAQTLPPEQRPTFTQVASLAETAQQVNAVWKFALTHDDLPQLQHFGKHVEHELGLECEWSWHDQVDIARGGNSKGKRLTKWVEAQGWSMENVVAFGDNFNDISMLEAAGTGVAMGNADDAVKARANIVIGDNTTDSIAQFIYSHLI"
Result: 5.16

Values were extracted from the supplement of paper PMC11246515.
